Origin of measurements: patent US20230026616A1

Assay: Pharmacokinetic evaluation (1): cassette PK in Balb/c male mice, plasma
Type: in vivo
Conditions: male, Balb/c; mouse plasma, PO 2 mg/kg
measure.name: AUC(0-t) (µM·h)

* Cc1cc2ncnn2cc1Nc1ncc2c(n1)n(N1C3CCC1COC3)c(=O)n2C [Compound 4] | 1.74
* Cc1cc2ncnn2cc1Nc1ncc2c(n1)n(N1CCOC3(CC3)C1)c(=O)n2C [Compound 10] | 3.83
* Cc1cc2nncn2cc1Nc1ncc2c(n1)n(N1CC3CCC(C1)O3)c(=O)n2C [Compound 17] | 3.4

----------
Experiment: Pharmacokinetic evaluation (1): cassette PK in Balb/c male mice, plasma
Assay type: in vivo
Details: male, Balb/c; mouse plasma, IV 0.4 mg/kg
measure.name: half-life (min)

• Cc1cc2ncnn2cc1Nc1ncc2c(n1)n(N1CCOC3(CC3)C1)c(=O)n2C = 35.5
• Cc1cc2nncn2cc1Nc1ncc2c(n1)n(N1CC3CCC(C1)O3)c(=O)n2C = 33.5
• Cc1cc2ncnn2cc1Nc1ncc2c(n1)n(N1C3CCC1COC3)c(=O)n2C = 14.4
